tested on: SEM cells; test: AUC of viability dose-response curve (% viability x log10 dose units); higher = less sensitive; settings: RPMI 5 mM glucose + 10% dialyzed FBS; 48 h
Some compounds, each annotated with its measured AUC of viability dose-response curve.

Compound | AUC of viability dose-response curve
COC1=CC=CC=C1C2=CC=CC(=C2)C/3=C(O)/C4=CC(=C(Cl)C=C4NC3=O)C#N | 344
Cn1cc(/C=C/C(=O)c2cccc(F)c2)cc1/C=C/C(=O)NO | 469
Cc1nc(NC(=O)N2CCC[C@H]2C(N)=O)sc1-c1ccnc(C(C)(C)C(F)(F)F)c1 | 400
CC\1=C/C=C\C=[N]1[Pt](N)(Cl)Cl | 421
COc1cnc(N[S+](=O)([O-])c2ccc(N)cc2)nc1 | 443
O=NN(CCCl)C(=O)NC1CCCCC1 | 433
COC1=NC(=NC(=C1N\C2=N\CCN2)Cl)C | 426
COc1cccc2cc(-c3nc(C4CCC(C(=O)O)CC4)n4ncnc(N)c34)[nH]c12 (stereo not drawn) | 329
NC1(c2ccc(-c3nc4ccn5c(=O)[nH]nc5c4cc3-c3ccccc3)cc2)CCC1 | 298
CC1=NN(c2ccc(C)c(C)c2)C(=O)/C1=N/Nc1cccc(-c2cccc(C(=O)O)c2)c1O | 442
CC/C(=C(/c1ccc(O)cc1)c1ccc(OCCNC)cc1)c1ccccc1 | 405
CO[C@H]1/C=C/O[C@@]2(C)Oc3c(C)c(O)c4c(O)c(c5c(nc6cc(C)ccn65)c4c3C2=O)NC(=O)/C(C)=C\C=C\[C@H](C)[C@H](O)[C@@H](C)[C@@H](O)[C@@H](C)[C@H](OC(C)=O)[C@@H]1C | 375
O=C([O-])C(O)Cc1ccc(O)c(O)c1 (stereo not drawn) | 387
C[C@]12CC[C@@H]3c4ccc(OC(=O)N(CCCl)CCCl)cc4CC[C@H]3[C@@H]1CC[C@@H]2OP(=O)([O-])[O-].[Na+].[Na+] | 382
CC1CCC(C(=O)N(c2cc(C#CC(C)(C)C)sc2C(=O)O)C2CCC(O)CC2)CC1 (stereo not drawn) | 400
Cn1c(=O)c2c(ncn2C)n(C)c1=O.O=C(O)CC(O)(CC(=O)O)C(=O)O | 475
C[C@]12C[C@H](O)[C@H]3[C@@H](CC\C4=C\C(=O)\C=C/[C@]34C)[C@@H]1CC[C@]2(O)C(=O)CO | 359
NC(=O)c1cnc(N[C@@H]2CCCC[C@@H]2N)nc1Nc1cccc(-n2nccn2)c1 | 428
FC(F)(F)c1ccc(/C=C/c2nc(COc3ccc(CCCCn4ccnn4)cc3)co2)cc1 | 374
CCc1cncnc1N1CCN(Cc2nc3cc(C(F)(F)F)ccc3[nH]2)CC1 | 426
CCC1(C)CC(=O)NC1=O (stereo not drawn) | 460
NC1(C(=O)N[C@@H](CCO)c2ccc(Cl)cc2)CCN(c2ncnc3[nH]ccc23)CC1 | 356
CC1(C)CCC[C@]2(C)[C@H]3CC(=O)O[C@]3(C)CC[C@@H]12 | 461

---

Some compounds, each annotated with its measured cell viability.
test system: P12-Ichikawa; assay: cell viability relative to DMSO control; higher = less cytotoxic; conditions: HPLM + 10% dialyzed FBS; 48 h; 1.71 µM

Compound | Unit of measurement | cell viability
CC(=O)O[C@H]1C(=O)[C@]2(C)[C@@H](O)C[C@H]3OC[C@@]3(OC(C)=O)C2[C@H](OC(=O)C4=CC=CC=C4)[C@]5(O)C[C@H](OC(=O)[C@H](O)[C@@H](NC(=O)C6=CC=CC=C6)C7=CC=CC=C7)\C(=C1/C5(C)C)C (stereo partly drawn) | % | 27.1
CN1[C@@H]2CC[C@H]1CC(OC(=O)c1c[nH]c3ccccc13)C2 (stereo partly drawn) | % | 126
CCCc1nc(C(C)(C)O)c(C(=O)O)n1Cc1ccc(-c2ccccc2-c2nn[nH]n2)cc1 | % | 119

---

tested on: NOMO1; test: AUC of viability dose-response curve (% viability x log10 dose units); higher = less sensitive; conditions: RPMI 5 mM glucose + 10% dialyzed FBS; 48 h
Some molecules, each annotated with its measured AUC of viability dose-response curve.

Molecule | Measured on | AUC of viability dose-response curve
C[C@@H](NC1=CC=CC=C1C(O)=O)C/2=C/C(=C\N3C(=O)/C=C(\N=C23)N4CCOCC4)C | NOMO1 | 336
O=C(NOCC(O)CO)c1cc(Br)c(F)c(F)c1Nc1ccc(I)cc1F (stereo not drawn) | NOMO1 | 219
OC[C@H]1O[C@H](C[C@@H]1O)[N]2C=NC3=C2\N=C/NC[C@H]3O | NOMO1 | 434
CC1(C)CCC[C@]2(C)[C@H]3CC(=O)O[C@]3(C)CC[C@@H]12 | NOMO1 | 440
C/C=C1\NC(=O)[C@H]2CSSCC/C=C\[C@H](CC(=O)N[C@H](C(C)C)C(=O)N2)OC(=O)[C@H](C(C)C)NC1=O | NOMO1 | 189
O=NN(CCCl)C(=O)NCCCl | NOMO1 | 463
CC(=O)O[C@H]1C[C@@H]2CC[C@@H]3[C@H](CC[C@@]4(C)[C@H]3C[C@H]([N+]3(C)CCCCC3)[C@@H]4OC(C)=O)[C@@]2(C)C[C@@H]1[N+]1(C)CCCCC1 | NOMO1 | 472
Cn1cc(CNCC2CCN(c3ncc(C(=O)NO)cn3)CC2)c2ccccc21 | NOMO1 | 271

---

system: NOMO1; assay: cell viability relative to DMSO control; higher = less cytotoxic; conditions: RPMI 5 mM glucose + 10% FBS; 48 h; 1.71 µM
Returns: string. Value is class 1 if measured cell viability is below 90%, and class 0 if it is greater than or equal to it.

Molecule | Class name
CN(c1ncccc1CNc1nc(Nc2ccc3c(c2)CC(=O)N3)ncc1C(F)(F)F)[S+](C)(=O)[O-] | class 0
COc1cc2nc(N(C)CCCNC(=O)C3CCCO3)nc(N)c2cc1OC (configuration not stated) | class 1
Oc1ccc2c3c1O[C@H]1c4[nH]c5c(c4C[C@@]4(O)[C@@H](C2)N(CC2CC2)CC[C@]314)C[C@@]1(O)[C@H]2Cc3ccc(O)c4c3[C@@]1(CCN2CC1CC1)[C@H]5O4 | class 0
CCN(CC)CC#CCOC(=O)C(O)(c1ccccc1)C1CCCCC1 (configuration not stated) | class 0
COC1CCC(CC1)N(C(=O)C2CCC(C)CC2)C3=C(SC(=C3)\C4=C\CCCC4)C(O)=O (configuration not stated) | class 0
C[C@H]1[C@H](NC(=O)/C(=N/OC(C)(C)C(=O)O)c2csc(N)n2)C(=O)N1[S+](=O)([O-])O | class 0
CC1=CC=CC=C1N2\C(=N/C3=C(C(=CC=C3)C)C2=O)C[N]4C=NC5=C4N=CN=C5N | class 0
c1cncc(CN2CCC(n3ncc4c(N5CCOCC5)nc(-c5ccc6[nH]ccc6c5)nc43)CC2)c1 | class 1
COC1=CC=CC2=C1C(=NC(=N2)C3=CC=CS3)NN4C(=O)\C=C(C)/C4=O | class 1
Cn1c(=O)c2c(ncn2C)n(C)c1=O.O=C(O)CC(O)(CC(=O)O)C(=O)O | class 0
COc1ccc(C[C@@H](C)[C@@H](C)Cc2ccc(OC)c(OC)c2)cc1OC | class 1
C#Cc1cccc(Nc2ncnc3cc(OCCOC)c(OCCOC)cc23)c1 | class 0
CC(=O)O[C@H]1C(=O)[C@]2(C)[C@@H](O)C[C@H]3OC[C@@]3(OC(C)=O)C2[C@H](OC(=O)C4=CC=CC=C4)[C@]5(O)C[C@H](OC(=O)[C@H](O)[C@@H](NC(=O)C6=CC=CC=C6)C7=CC=CC=C7)\C(=C1/C5(C)C)C (some centres not stated) | class 1

---

tested on: P12-Ichikawa; assay: AUC of viability dose-response curve (% viability x log10 dose units); higher = less sensitive; conditions: RPMI 5 mM glucose + 10% FBS; 48 h
Some molecules, each annotated with its measured AUC of viability dose-response curve.

Smiles | AUC of viability dose-response curve
Cn1c(=O)c2c(ncn2C)n(C)c1=O.O=C(O)CC(O)(CC(=O)O)C(=O)O | 462
C#Cc1cccc(Nc2ncnc3cc(OCCOC)c(OCCOC)cc23)c1 | 421
c1cncc(CN2CCC(n3ncc4c(N5CCOCC5)nc(-c5ccc6[nH]ccc6c5)nc43)CC2)c1 | 351
CC/C(=C(/c1ccc(O)cc1)c1ccc(OCCNC)cc1)c1ccccc1 | 414
NC(=O)c1cnc(N[C@@H]2CCCC[C@@H]2N)nc1Nc1cccc(-n2nccn2)c1 | 462

---

Some molecules, each annotated with its measured cell viability.
test system: SEM cells; test: cell viability relative to DMSO control; higher = less cytotoxic; settings: RPMI 5 mM glucose + 10% FBS; 48 h; 0.0632 µM
Quantity name: cell viability (%)

Molecule | Quantity name | Unit of measurement | Measured
O=C(Nc1ccccc1Br)N[C@@H]1CCN(c2ccc(C(F)(F)F)cn2)C1 | cell viability | % | 113
CN1[C@@H]2CC(OC(=O)[C@@H](CO)c3ccccc3)C[C@H]1[C@H]1O[C@H]12 (stereo partly drawn) | cell viability | % | 90.6
COC1=NC(=NC(=C1N\C2=N\CCN2)Cl)C | cell viability | % | 79.6
CO[C@H]1/C=C/O[C@@]2(C)Oc3c(C)c(O)c4c(O)c(c5c(nc6cc(C)ccn65)c4c3C2=O)NC(=O)/C(C)=C\C=C\[C@H](C)[C@H](O)[C@@H](C)[C@@H](O)[C@@H](C)[C@H](OC(C)=O)[C@@H]1C | cell viability | % | 94.9
COc1cc2c(cc1-c1c(C)noc1C)ncc1[nH]c(=O)n([C@H](C)c3ccccn3)c12 | cell viability | % | 119
Cc1ccccc1C(C(=O)NC1CCCCC1)N(C(=O)Cn1ccnc1C)c1cccc(F)c1 (stereo not drawn) | cell viability | % | 98.4
CNC(=O)c1ccc(-c2cnc3ncc(Cc4ccc5ncccc5c4)n3n2)cc1F | cell viability | % | 133
CC1=NN(c2ccc(C)c(C)c2)C(=O)/C1=N/Nc1cccc(-c2cccc(C(=O)O)c2)c1O | cell viability | % | 129
